Experiment: Plasma pharmacokinetics of midodrine and desglymidodrine after oral intake / colon absorption (general findings and presumptions)
Format: in vivo, human
Conditions: human, in vivo, po
measurement_type: Tmax

Query :: Which Tmax reading was recorded for the compound COc1ccc(OC)c(C(O)CN)c1 (stereo not shown) [desglymidodrine] ?
Result :: 1 to 2 h

====

Assay: Plasma pharmacokinetics of midodrine and desglymidodrine after oral intake / colon absorption (general findings and presumptions)
Type: in vivo, human
Details: human, in vivo, 7.5 mg; presumption made in estimating the target profile; obtained after tablet administration
measurement_type: Cmax

Query :: Which Cmax reading was recorded for the compound COc1ccc(OC)c(C(O)CN)c1 (stereo not shown) ?
Result :: ~3.75 ng/mL

====

Experiment: Plasma pharmacokinetics of midodrine and desglymidodrine after oral intake / colon absorption (general findings and presumptions)
Type: in vivo, human
Conditions: human, plasma, oral, 7.5 mg; presumption made in estimating the target profile; obtained after tablet administration
measurement_type: Cmax

Query :: Which Cmax reading was recorded for the compound COc1ccc(OC)c(C(O)CNC(=O)CN)c1 (stereo not shown) [midodrine] ?
Result :: ~11 ng/mL
